Every entry's value here was drawn from patent US20120135952A1.

In this section, each of the compounds is paired with its reported IC50.
System: Human breast cancer-derived MCF7 cells
Test: MTT assay, cancer cell viability and growth inhibition (MCF7)
Conditions: read-out: GROWTH INHIBITORY CONCENTRATION (GIC50); MCF7, 72 hours, MTT
# output: bare number, implied unit µM

INSERT INTO measurements (compound, reportedvalue) VALUES
  ('CN(C)C(=N)NC(=N)N [Metformin butyrate]', 1600);

Challenge: # get_value(readout='IC50', item= CCCC(=O)O )
Response given: 2200
